src = patent US8518945B2

Target: h-jak3(810-1124) (JAK3: Recombinant human kinase domain) (Homo sapiens, UniProt P52333)
Construct: jak3(810- 1124)-sf9-c
Sequence (P52333 810-1124): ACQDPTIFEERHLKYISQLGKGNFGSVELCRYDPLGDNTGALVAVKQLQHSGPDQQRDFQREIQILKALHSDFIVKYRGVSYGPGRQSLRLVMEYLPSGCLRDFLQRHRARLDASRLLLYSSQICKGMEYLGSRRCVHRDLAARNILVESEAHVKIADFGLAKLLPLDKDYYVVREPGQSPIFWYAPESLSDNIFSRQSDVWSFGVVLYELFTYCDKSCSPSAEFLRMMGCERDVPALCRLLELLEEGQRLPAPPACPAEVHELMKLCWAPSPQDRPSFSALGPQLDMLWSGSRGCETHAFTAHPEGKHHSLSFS
Assay: Determination of IC50 of Janus Kinase (JAK) inhibition: JAK3 radioactive end-point 33P-ATP kinase assay
Settings: no additive; ATP 1.5 uM, peptide 50 uM, 20 minutes, room temperature; read-out: Ic50 h-jak3(810-1124)-sf9-c: no additive
Hi! Could you tag entries with IC50 below 3 nM as rule met, and those at or above as rule not met? Much appreciated.

[
  {
    "compound": "Cn1cc(-c2cnc3[nH]cc(C(=O)N[C@@H](C(=O)N4CC[C@@H](C#N)C4)C4CC4)c3n2)cn1 [Example I-82]",
    "assignedLabel": "rule met"
  },
  {
    "compound": "Cn1cc(-c2cnc3[nH]cc(C(=O)N[C@@H](C(=O)N4C[C@@H]5[C@@H](CO)[C@@H]5C4)C4CC4)c3n2)cn1 [Example I-87]",
    "assignedLabel": "rule not met"
  },
  {
    "compound": "COC1CCN(C(=O)[C@@H](C)NC(=O)c2c[nH]c3ncc(C4CC4)nc23)C1 (some centres unmarked) [Example I-9]",
    "assignedLabel": "rule not met"
  }
]

### Prompt Strictly below 3 nM in IC50? O=C(N[C@@H](C(=O)N1CCCC1)C1CCCCC1)c1c[nH]c2ncc(C3CC3)nc12 [Example I-37]
### Response rule met

### Prompt Strictly below 3 nM in IC50? N#CC1CCN(C(=O)[C@H](NC(=O)c2c[nH]c3ncc(C4CC4)nc23)c2ccccc2)CC1 [Example I-114]
### Response rule not met

### Prompt Strictly below 3 nM in IC50? C[C@@H](NC(=O)c1c[nH]c2ncc(-c3cc(C4=CCCC4)ccn3)nc12)C(=O)N1CC(C#N)C1 [Example I-113]
### Response rule not met

### Prompt Strictly below 3 nM in IC50? N#CC1CCN(C(=O)[C@H](NC(=O)c2c[nH]c3ncc(-c4cn(C5CCCC5)cn4)nc23)C2CC2)CC1 [Example I-121]
### Response rule met
